assayed target: G1 APOL1 (Homo sapiens, UniProt O14791, I384M/S342G)
Construct: expressed in transfected cells
Sequence (O14791 28-398 S342G/I384M): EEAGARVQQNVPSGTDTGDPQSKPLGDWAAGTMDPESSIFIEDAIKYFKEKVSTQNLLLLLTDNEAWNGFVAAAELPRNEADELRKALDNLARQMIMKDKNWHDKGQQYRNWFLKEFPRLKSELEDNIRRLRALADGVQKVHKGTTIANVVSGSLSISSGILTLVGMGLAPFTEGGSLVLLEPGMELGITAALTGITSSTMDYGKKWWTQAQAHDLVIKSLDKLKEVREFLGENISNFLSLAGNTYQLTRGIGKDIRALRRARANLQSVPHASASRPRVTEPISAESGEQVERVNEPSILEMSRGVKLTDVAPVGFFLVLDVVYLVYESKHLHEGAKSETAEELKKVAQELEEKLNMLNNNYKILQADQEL
measurement description: Acute APOL1 Thallium Assay with inducible stable clones of HEK 293 cells
Assay type: cell-based
condition context: HEK 293 T-Rex inducible stable clone expressing G1 APOL1; read-out: Thallium Assay (IC50)
measured parameter: IC50

Consider the reported IC50 for these compounds:
Ask: Recall and state the measured IC50 for O=S(=O)(NC[C@H]1C[C@H](c2c(-c3ccc(F)cc3)[nH]c3c(F)cc(F)cc32)C1)N[C@@H]1CCC[C@@H]1O [Compound 357] .
Result: > 1000 nM

Ask: Recall and state the measured IC50 for CC(C)(C)OC(=O)N[C@@H](CO)C(=O)NC[C@H]1C[C@H](c2c(-c3ccc(F)cc3)[nH]c3c(F)cc(F)cc32)C1 [Compound 193] .
Result: < 250 nM

Ask: Recall and state the measured IC50 for Fc1ccc(-c2[nH]c3c(F)cc(F)cc3c2C2CC(CNCC3COC3)C2)cc1 (stereo not shown) [Compound 405] .
Result: > 1000 nM

Ask: Recall and state the measured IC50 for CC(C)(C)OC(=O)NC1(C(=O)NC[C@H]2C[C@H](c3c(-c4ccc(F)cc4)[nH]c4c(F)cc(F)cc43)C2)COC1 [Compound 311] .
Result: > 1000 nM

Ask: Recall and state the measured IC50 for O=C1CC(C(=O)NC[C@H]2C[C@H](c3c(-c4ccc(F)cc4)[nH]c4c(F)cc(F)cc43)C2)C(=O)N1 (stereo partly shown) [Compound 287] .
Result: > 1000 nM

Ask: Recall and state the measured IC50 for O=C(CC1CC(F)(F)C1)N[C@H]1C[C@@H](c2c(-c3ccc(F)cc3)[nH]c3c(F)cc(F)cc32)C1 [Compound 31] .
Result: > 1000 nM

In the following, a different compound is considered.
Ask: Recall and state the measured IC50 for O=S(=O)(NC[C@H]1C[C@H](c2c(-c3ccc(F)cc3)[nH]c3c(F)cc(F)cc32)C1)c1c[nH]cn1 [Compound 415] .
Result: 250 to 1000 nM

====

assayed target: G1 APOL1 (Homo sapiens, UniProt O14791, I384M/S342G)
Construct: expressed in transfected cells
measurement description: Acute APOL1 Thallium Assay with inducible stable clones of HEK 293 cells
Format: cell-based
condition context: HEK 293 T-Rex inducible stable clone expressing G1 APOL1; read-out: Thallium Assay (IC50)
measured parameter: IC50

Consider the reported IC50 for these compounds:
Ask: Recall and state the measured IC50 for CC(CC(=O)NC[C@H]1C[C@@H](c2c(-c3ccc(F)cc3)[nH]c3c(F)cc(F)cc32)C1)N1CCOCC1 (mixture of isomers) .
Result: > 1000 nM

Ask: Recall and state the measured IC50 for "O=C1CC[C@H](C(=O)NC[C@H]2C[C@@H](c3c(-c4ccc(F)cc4)[nH]c4c(F)cc(F)cc43)C2)N1" .
Result: > 1000 nM

Ask: Recall and state the measured IC50 for "CC(C)S(=O)(=O)N[C@H]1C[C@H](c2c(-c3ccc(F)cc3)[nH]c3c(F)cc(F)cc32)C1" .
Result: 250 to 1000 nM

Ask: Recall and state the measured IC50 for "O=S(=O)(NCCCn1ccnc1)NC[C@H]1C[C@H](c2c(-c3ccc(F)cc3)[nH]c3c(F)cc(F)cc32)C1" .
Result: > 1000 nM

Ask: Recall and state the measured IC50 for "O=C(CCN1CCCCC1)N[C@H]1C[C@@H](c2c(-c3ccc(F)cc3)[nH]c3c(F)cc(F)cc32)C1" .
Result: > 1000 nM

Continuing:
Ask: Recall and state the measured IC50 for "O=C1CC[C@H](C(=O)NC[C@H]2C[C@H](c3c(-c4ccc(F)cc4)[nH]c4c(F)cc(F)cc43)C2)N1" .
Result: > 1000 nM

Ask: Recall and state the measured IC50 for "CN(C)C(=O)CCC(=O)N[C@H]1C[C@@H](c2c(-c3ccc(F)cc3)[nH]c3c(F)cc(F)cc32)C1" .
Result: > 1000 nM

Ask: Recall and state the measured IC50 for "COC1(CC(=O)NC[C@H]2C[C@@H](c3c(-c4ccc(F)cc4)[nH]c4c(F)cc(F)cc43)C2)CCC1" .
Result: > 1000 nM

Ask: Recall and state the measured IC50 for NC(=O)CNC(=O)C1CC(Cc2c(-c3ccc(F)cc3)[nH]c3c(F)cc(F)cc23)C1 (stereo not shown) .
Result: > 1000 nM

Ask: Recall and state the measured IC50 for O=C1CC(NCC2CC(c3c(-c4ccc(F)cc4)[nH]c4c(F)cc(F)cc34)C2)CN1 (stereo not shown) .
Result: > 1000 nM

Ask: Recall and state the measured IC50 for O=C1NCCC1CNS(=O)(=O)NC[C@H]1C[C@H](c2c(-c3ccc(F)cc3)[nH]c3c(F)cc(F)cc32)C1 (stereo partly shown) .
Result: > 1000 nM

Ask: Recall and state the measured IC50 for CC1(C)CCC(C(=O)N[C@H]2C[C@@H](c3c(-c4ccc(F)cc4)[nH]c4c(F)cc(F)cc43)C2)N1 (stereo partly shown) .
Result: > 1000 nM

Provenance of the data: patent US12281102B2
